Test system: KM12 colon
experiment-notes: NCI tumour cell line growth inhibition, 48 h
# TGI annotations
Respond with the bare value in µM.

Below: 5 molecules and their reported TGI.
> print(dat)
                                   molecule  obs.value
1  C=CC[C@@]1(OC(C)=O)C(=O)C(=O)OC1C1COC(C)(C)O1 (stereo not given in full)       29.1
2  Cn1c(=O)nc2n(-c3cccc(Cl)c3)c3ccccc3nc-2c1=O       44.9
3  O=C(NC1CCCCC1)OCc1c(COC(=O)NC2CCCCC2)c(-c2ccc(Cl)c(Cl)c2)n2c1CCC2       29.3
4  CCCC(=O)OCC1OC(n2cnc3c(=S)nc(N)[nH]c32)C(OC(=O)CCC)C1OC(=O)CCC (stereo not given)         22
5  COc1ccc2cc1Oc1ccc(cc1)CC1c3cc(OC)c(cc3CCN1C)Oc1c(OC)c(OC)cc3c1C(C2)N(C)CC3 (stereo not given)         26

Just so you know, measured TGI for O=C1CCCC/C1=C(\Br)I came out at 34

Lab note: measured TGI of O=C(c1cccc(F)c1F)N1CCc2c([nH]c3ccccc23)C1c1ccc2c(c1)OCO2 (stereo not given) was 32.7

The recorded TGI for CC1=C(Cc2ccccc2)C(Cc2ccccc2)=C(C)S1=O is 36.5

The molecule N#CC1=C(N)OC2=C(CCCc3ccccc32)C1c1ccc([N+](=O)[O-])cc1 (stereo not given) showed TGI equal to 32.5
